Origin of the recorded values: PubChem BioAssay (NCI)

# Tested on: HCT-15 colon
# Assay text: NCI-60 one-dose screen, 48 h
# Setup conditions: 10 µM unless noted
The panel holds about 83,000 compounds, 20% with a hit somewhere; the sample as a whole holds those more often. Calls of active or inactive are those of the source. The calls were made as follows: active = growth percent below 10; inactive = the rest.
Pick one and only one: active, inactive

Illustrative cases are given below, each with its answer.
Molecule	Target	Class name
O=C1/C=C/[C@@H](O)[C@@H]2C[C@@H](O)C[C@H]2/C=C/CCC[C@H](CCO)O1	HCT-15 colon	inactive
N#C/C(=C\C=C\c1ccc(-c2cc(Cl)ccc2Cl)o1)c1nc2ccccc2s1	HCT-15 colon	inactive
COc1ccc(C(O)c2cc3c(N)c(C(=O)Nc4cccc(Cl)c4C)sc3nc2C)cc1 (centres undefined)	HCT-15 colon	inactive
O=C1/C(=C2\SC(=S)N(C3CC3)C2=O)SC(=S)N1C1CC1	HCT-15 colon	inactive
O=C(Nc1ccccc1N1CCCC1=O)c1oc2ccc(F)cc2c1-c1cnn(-c2ccccc2)c1	HCT-15 colon	inactive
C=C(C)[C@@H]1CC[C@]2(C)[C@H](CC=C3[C@@H]4CC(C)(C)CC[C@]4(CO)CC[C@]32C)[C@@]1(C)CCCN	HCT-15 colon	active

Enquiry: // return assay outcome for CC1(C)CC2=C3C=C[C@@H]4[C@@]5(C)CCC(=O)C(C)(C)[C@@H]5CC[C@@]4(C)[C@]3(C)CC[C@@]2(C(=O)O)C[C@H]1O
Return: active

Enquiry: // return assay outcome for CC(C)(C)n1cc(-c2ccnc(NCCCNS(=O)(=O)c3cccc4ccccc34)c2)c(-c2cccc(F)c2)n1
Return: inactive

Enquiry: // return assay outcome for O=C(NNc1cnccn1)c1nc2cc(F)ccc2n2cccc12
Return: inactive

Enquiry: // return assay outcome for COc1ccc(CCN(CC(=O)N(CC(N)=O)C2CCC[C@@H]2OCc2ccccc2)C(=O)CN(C(=O)CN(CCc2ccc(Cl)cc2)C(=O)CN(C(=O)CN(C)Cc2ccccc2F)[C@H](C)C2CCCCC2)[C@H](C)C2CCCCC2)cc1OC (some centres undefined)
Return: inactive

Enquiry: // return assay outcome for N#CC1=C(N)Oc2ccc3ccccc3c2C1c1ccc([N+](=O)[O-])cc1 (centres undefined)
Return: inactive

---

Examples of compounds with documented growth follow.
# Tested on: SK-MEL-5 melanoma
# Assay text: NCI-60 one-dose screen, 48 h (100 = growth as untreated, 0 = no growth, -100 = all killed)
# Setup conditions: 10 µM unless noted
# Procedure: Growth inhibition of the SK-MEL-5 human tumor cell line is measured as a screen for anti-cancer activity. Cells are grown in 96 well plates and exposed to the test compound for 48 hours. Compounds are tested at a single concentration, which is 10^-5 M for most compounds. The reported endpoint is percent growth (GI% or GIPRCNT), where numbers from 0 - 100% represent growth inhibition, and numbers from -100% - 0 represent cell death. For example, a value of 40 represents 60% growth inhibition. […]
This is part of a sample that, as a whole, favours compounds with a hit. Of some 83,000 tested, about 20% had one in any assay. Active and inactive are the calls of the source. How the source made its calls: active means growth percent below 10; inactive means the rest.

Solved cases below.
Compound	Observable	Value reported
Cc1cn(-c2cc(NC(=O)c3cncc(C#Cc4c(N)ncc5ccc(F)cc45)c3)cc(C(F)(F)F)c2)cn1	growth	27.4% (inactive)
CCCCCCCC/C=C\CCCCCCCCOc1ccc(CC(=O)NCC[N+]2(C)CCOCC2)cc1	growth	99% (inactive)
Cc1ccc(/C=C/C(=O)Nc2ncc(Cc3ccc(F)cc3)s2)o1	growth	45.3% (inactive)
C=CCn1c(SCC(=O)Nc2ccc(/C(C)=N/O)cc2)nnc1-c1cc(-c2ccc(S(N)(=O)=O)cc2)nc2ccccc12	growth	65.6% (inactive)
O=C(CCCCCNC(=O)c1cc(=O)c(O)co1)Nc1ccccc1	growth	101% (inactive)

Enquiry: Identify the reported growth for the following entry. C#CCOc1cccc(-c2ncnc3cc(NC(=O)C=C)ccc23)c1
Return: 68.5% (inactive)

Enquiry: Identify the reported growth for the following entry. Nc1nc(N)c2c(n1)NC(c1ccc(Cl)cc1)C1CCc3ccccc3C1=N2 (stereo not drawn)
Return: 7.87% (active)

Enquiry: Identify the reported growth for the following entry. CCNc1nc(O)c(/C=C2\C=Nc3ncccc32)s1
Return: 9.15% (active)

Enquiry: Identify the reported growth for the following entry. Nc1nc2c(c3ncccc13)C(c1cccc(Cl)c1)Cc1ncccc1-2 (stereo not drawn)
Return: 29.3% (inactive)

Enquiry: Identify the reported growth for the following entry. CCOC(=O)c1[nH]c2c(c1C)-c1[nH]c(=O)c(S(=O)(=O)c3ccccc3)cc1SC2
Return: 35.9% [100 µM] (inactive)

---

# Tested on: OVCAR-3 ovarian
# Assay text: NCI-60 one-dose screen, 48 h
# Setup conditions: 10 µM unless noted
About 83,000 compounds went through this panel and 20% of them were active in at least one assay; those are over-represented in the sample as a whole. Calls of active or inactive are those of the source. The calls were made as follows: active = growth percent below 10; inactive = the rest.
Pick one and only one: 1 (yes) = active, 0 (no) = inactive

Illustrative cases are given below, each with its answer.
Compound	Target	Class name
COC(=O)c1cc(Br)ccc1O	OVCAR-3 ovarian	0 (no)
COc1ccc(CCN(CC(=O)N(CC(N)=O)C2CCC[C@@H]2OCc2ccccc2)C(=O)CN(C(=O)CN(CCc2ccc(Cl)cc2)C(=O)CN(C(=O)CN(C)Cc2ccccc2F)[C@H](C)C2CCCCC2)[C@H](C)C2CCCCC2)cc1OC (some centres undefined)	OVCAR-3 ovarian	0 (no)
CC(=O)ON1CCCC(P(=O)(OCCSC(=O)C(C)(C)C)OCCSC(=O)C(C)(C)C)C1=O (centres undefined)	OVCAR-3 ovarian	0 (no)
COc1ccc(Nc2ncccc2/C=C/C(=O)c2cc(OC)c(OC)c(OC)c2)cc1	OVCAR-3 ovarian	1 (yes)
COc1cc(OC)c2sc(-c3ccc(-n4cncc4-c4cc(OC)c(OC)c(OC)c4)cc3)nc2c1	OVCAR-3 ovarian	0 (no)

Enquiry: // return assay outcome for Cc1ccc(/C=C(\C#N)n2nnc3cc(F)c(F)cc32)cc1
Return: 1 (yes)

Enquiry: // return assay outcome for COC1=C(C)C(=O)N2[C@@H]1[C@H](c1ccccc1)OC21C=CC(=O)C=C1
Return: 1 (yes)

Enquiry: // return assay outcome for COc1ccc(-c2nn(-c3ccccc3)cc2/C=C/C(=O)NNC(=O)Nc2ccc(C)cc2)cc1
Return: 0 (no)

---

# System: MCF7 breast
# Assay text: NCI-60 one-dose screen, 48 h
# Setup conditions: 10 µM unless noted
Compounds without any hit were thinned out: in the full panel of roughly 83,000, 20% have a hit. Active and inactive are the calls of the source. How the source made its calls: active means growth percent below 10; inactive means the rest.
Pick one and only one: yes for active, no for inactive

Illustrative cases are given below, each with its answer.
Compound	Target	Class name
Clc1ccccc1-c1cnn2cc(-c3ccccc3)cnc12	MCF7 breast	no
Cc1nc2c(c(=O)[nH]1)C(c1ccccc1)c1ccc3ccccc3c1O2 (stereo not given)	MCF7 breast	no
C=CCOC(=O)C1=C(C)N(CC)C(=O)NC1c1c(Cl)n(C)c2ccccc12 (stereo not given)	MCF7 breast	no
C[n+]1ccc(CCc2c[nH]c3ccccc23)cc1	MCF7 breast	no
O=C(Nc1ncccc1OCc1ccccc1)NC1CCCCCC1	MCF7 breast	no
C=C1CC[C@@H]2C(C)(C)[C@@H](O)CC[C@@]2(C)[C@@H]1COc1ccc2ccc(=O)oc2c1	MCF7 breast	no
COc1ccc(CCN2C(=O)/C(=C/c3ccc(C4Oc5ccccc5C5CC(c6ccccc6)=NN54)cc3)SC2=S)cc1 (stereo not given)	MCF7 breast	no
CN1CCN(C(=O)C(C)(C)c2ccc(C(=O)Nc3cn4cc(-c5ccncc5)ccc4n3)cc2)CC1	MCF7 breast	yes
O=C(Nc1cnc(Nc2ccc(N3CCOCC3)nc2)nc1Oc1ccc(C(F)(F)F)cc1)c1ccncc1	MCF7 breast	no
O=C(CCCCCNC(=O)c1cc(=O)c(O)co1)Nc1ccccc1	MCF7 breast	no

Enquiry: // return assay outcome for CC1(C)C(N)=Nc2cc(OCCCN3Cc4ccccc4C3)c(OCC3CC3)cc21
Return: no

Enquiry: // return assay outcome for COc1ccc(Nc2ncccc2/C=C/C(=O)c2cc(OC)c(OC)c(OC)c2)cc1
Return: yes

Enquiry: // return assay outcome for COc1cccc(/C=C/C(=O)c2cc3c(N)c(C(=O)Nc4cccc5ccccc45)sc3nc2C)c1
Return: no

Enquiry: // return assay outcome for Nc1nc(N)c(N=Nc2ccccc2)c(-c2ccccc2)n1
Return: no

Enquiry: // return assay outcome for COc1ccc(C#Cc2ccc(=O)oc2-c2cc(OC)c(OC)c(OC)c2)cc1O
Return: no

Enquiry: // return assay outcome for Cc1ccc(-c2csc(N(C(=O)N3CCN(c4cc5c(cc4F)c(=O)c(C(=O)O)cn5C4CC4)CC3)c3ccccc3)n2)cc1
Return: yes

Enquiry: // return assay outcome for Nc1nc2c(c3ncccc13)C(c1cccc(Cl)c1)Cc1ncccc1-2 (stereo not given)
Return: no

Enquiry: // return assay outcome for Cc1ccc(C)c2c(C)c(C(=O)Nc3cccc(-n4cccn4)c3)oc12
Return: no

Enquiry: // return assay outcome for CCN1C(=O)N(CC)C2C1NC(=S)N2/N=C/c1ccc(C(F)(F)F)cc1 (stereo not given)
Return: no

Enquiry: // return assay outcome for COc1ccc(/C=C/C(c2cc(OC)c(OC)c(OC)c2)n2cncn2)cc1 (stereo not given)
Return: no

Enquiry: // return assay outcome for CCCCNc1nnc2n(Cc3ccccc3)c(=O)c3c4c(sc3n12)CCCC4
Return: no

Enquiry: // return assay outcome for N#Cc1cccc(C2C3=C(COC3=O)N(CCO)c3cc4c(cc32)CCC4)c1 (stereo not given)
Return: no

Enquiry: // return assay outcome for Cc1ccc(/C=C/C(=O)Nc2ncc(Cc3ccc(F)cc3)s2)o1
Return: no

Enquiry: // return assay outcome for CC1(C)CC[C@]2(C(=O)N[C@H](CO)Cc3ccccc3)CC[C@]3(C)C(=CC[C@@H]4[C@@]5(C)CCCNC(C)(C)[C@@H]5CC[C@]43C)[C@@H]2C1
Return: no

Enquiry: // return assay outcome for CN1C(=O)/C(=C/c2ccc(C(=O)Nc3ncc(Cc4cccc(Cl)c4)s3)cc2)SC1=S
Return: no

Enquiry: // return assay outcome for C=C1C(=O)O[C@H]2[C@H]1CC/C(Cn1cc(CCC)nn1)=C\CC[C@@]1(C)O[C@@H]21
Return: no

Enquiry: // return assay outcome for Cc1cccc[n+]1C1c2ccccc2-c2ccccc21
Return: no

Enquiry: // return assay outcome for COc1cccc(C(=O)NNc2nc(Cl)nc(Cl)n2)c1
Return: no

Enquiry: // return assay outcome for O=S(=O)(Nc1cc(Sc2cccc3cccnc23)c(O)c2ccccc12)c1ccccc1
Return: yes

Enquiry: // return assay outcome for C[C@H](C(=O)N(CCc1ccc(Cl)c(Cl)c1)Cc1cncs1)[C@@H]1CC[C@H](C[C@H](C)n2cc(CN3CCC(c4ccc(Cl)cc4)CC3)nn2)O1
Return: no
